These measurements were taken from patent US20220089698A1.

# Test System: BSA (UniProt P02769)
# Experimental Protocol: single-point ELISA
ELISA (A450) values for the binders below.
Result Type: ELISA (A450)

INSERT INTO assay_data (binder, endpoint_value) VALUES
  ('1.34.35-1 (antibody, human IgG1, kappa, V domains shown) VH: QVQLVQSGAEVKKPGASVRVSCKASGYNIRDYFIHWWRQAPGQGLQWVGWINPKTGQPNNPRQFQGRVTLTRHASWDFDTFSFYMDLKALRSDDTAVYFCARQRTDYWDFDVWGSGTQVTVSS VL: DIQMTQSPSSLSASVGDRVTITCQANGYLNWYQQKPGKAPKLLIYDGSNLETGVPSRFSGSRWGQEYTLTISSLQPEDIATYFCQVYEFVGPGTNLDIKR', 0.06),
  ('1.36.35-1 (antibody, human IgG1, kappa, V domains shown) VH: QVQLVQSGAEVKKPGASVRVSCKASGYNIRDYFMHWWRQAPGQGLQWVGWINPKTGQPNNPRQFQGRVTMTRHASWDFDTFSAYMDLSRLRSDDTATYFCARQRTDYWDFDVWGQGTMVTVSS VL: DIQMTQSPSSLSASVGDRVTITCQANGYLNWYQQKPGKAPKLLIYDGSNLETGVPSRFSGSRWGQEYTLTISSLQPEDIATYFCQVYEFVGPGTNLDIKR', 0.06),
  ('1.13.17-1 (antibody, human IgG1, kappa, V domains shown) VH: QVQLLQSGAAVTKPGASVRVSCEASGYNIRDYFMHWVRQAPGQGLQWVGWINPKTGQPNNPRQFQGRVSLTRHASWDFDTFSFYMDLKALRSDDTAVYFCARQRSDYWDFDVWGSGTQVTVSS VL: DIQMTQSPSSLSASVGDTVTITCQANGYLNWYQQRRGKAPKLLIYDGSKLERGVPSRFSGRRWGQEYNLTINNLQPEDIATYFCQVYEFFGPGTRLDLKR', 0.06),
  ('1.14.17-1 (antibody, human IgG1, kappa, V domains shown) VH: QVQLLQSGAAVTKPGASVRVSCEASGYNIRDYFMHWVRQAPGQGLQWVGWINPKTGQPNNPRQFQGRVSLTRHASWDFDTFSAYMDLKALRSDDTAVYFCARQRSDYWDFDVWGSGTQVTVSS VL: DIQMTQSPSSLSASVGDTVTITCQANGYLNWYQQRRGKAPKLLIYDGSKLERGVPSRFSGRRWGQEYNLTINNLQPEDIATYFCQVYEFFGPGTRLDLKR', 0.1);
